Target: Histamine H3 receptor (Rattus norvegicus, UniProt Q9QYN8)
Construct: The cerebral cortical tissues were harvested and frozen on dry ice; from tissue; host or cells: cerebral cortex membranes of male Sprague-Dawley rats
Sequence (Q9QYN8 whole entry): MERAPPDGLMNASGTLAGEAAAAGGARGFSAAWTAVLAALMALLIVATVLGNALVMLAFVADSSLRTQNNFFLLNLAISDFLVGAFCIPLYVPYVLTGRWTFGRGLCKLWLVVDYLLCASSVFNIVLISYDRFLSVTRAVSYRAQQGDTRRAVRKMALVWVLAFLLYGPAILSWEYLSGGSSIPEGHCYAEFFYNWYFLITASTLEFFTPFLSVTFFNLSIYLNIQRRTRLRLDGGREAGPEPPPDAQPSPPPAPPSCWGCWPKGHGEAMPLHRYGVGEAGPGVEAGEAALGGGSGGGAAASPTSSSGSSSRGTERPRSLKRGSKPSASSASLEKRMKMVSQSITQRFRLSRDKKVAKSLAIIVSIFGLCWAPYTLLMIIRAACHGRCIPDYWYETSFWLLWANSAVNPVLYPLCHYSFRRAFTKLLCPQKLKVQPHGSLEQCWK
Assay: Histamine H3 receptor binding analysis, [3H]-Nα-methylhistamine competition in rat cerebral cortical membranes, with and without GTPγS
Settings: GTPγS-treated receptor preparation (G-protein uncoupled); read-out: Ki (+) GTPγS
pKi: −log10 of the molar value.
Quick reference: pKi of the listed items.
Measured property: pKi

Molecule: O=C(N[C@@H]1C[C@H]1c1c[nH]cn1)OCCC1CCCCC1 [Compound 1]
Test target: Histamine H3 receptor (Rattus norvegicus, UniProt Q9QYN8)
Measured property: pKi
Test result: 8.14
--
Molecule: N[C@H](/C=C\CCc1c[nH]cn1)CC1CCCCC1 [Compound 4]
Test target: Histamine H3 receptor (Rattus norvegicus, UniProt Q9QYN8)
Measured property: pKi
Test result: 8.72
--
Molecule: C(=C/CCC1CCCCC1)/CCc1c[nH]cn1 [Compound 2]
Test target: Histamine H3 receptor (Rattus norvegicus, UniProt Q9QYN8)
Measured property: pKi
Test result: 8.44
--
Molecule: CC(C)(C)CCC#C[C@@H]1C[C@H]1c1c[nH]cn1 [Compound 6]
Test target: Histamine H3 receptor (Rattus norvegicus, UniProt Q9QYN8)
Measured property: pKi
Test result: 9.62
--
Molecule: O=C(N[C@@H]1C[C@H]1c1c[nH]cn1)OCc1c(Cl)cccc1Cl [Compound 7]
Test target: Histamine H3 receptor (Rattus norvegicus, UniProt Q9QYN8)
Measured property: pKi
Test result: 8.64
--
Molecule: CC(C)(C)CCOC(=O)N[C@@H]1C[C@H]1c1c[nH]cn1 [Compound 9]
Test target: Histamine H3 receptor (Rattus norvegicus, UniProt Q9QYN8)
Measured property: pKi
Test result: 8.35

* * *

Target: Histamine H3 receptor (Rattus norvegicus, UniProt Q9QYN8)
Construct: The cerebral cortical tissues were harvested and frozen on dry ice; from tissue; host or cells: cerebral cortex membranes of male Sprague-Dawley rats
Assay: Histamine H3 receptor binding analysis, [3H]-Nα-methylhistamine competition in rat cerebral cortical membranes, with and without GTPγS
Details: Ki (−) GTPγS, untreated receptor preparation (mixture of coupled and uncoupled H3 receptors)

Smi: O=C(N[C@@H]1C[C@H]1c1c[nH]cn1)OCC1CCCCC1
Test target: Histamine H3 receptor (Rattus norvegicus, UniProt Q9QYN8)
Ki [nM]: 10.1

* * *

Target: Histamine H3 receptor (Rattus norvegicus, UniProt Q9QYN8)
Construct: The cerebral cortical tissues were harvested and frozen on dry ice; from tissue; host or cells: cerebral cortex membranes of male Sprague-Dawley rats
Experiment: Histamine H3 receptor binding analysis, [3H]-Nα-methylhistamine competition in rat cerebral cortical membranes, with and without GTPγS
Conditions: Ki (+) GTPγS, GTPγS-treated receptor preparation (G-protein uncoupled)
pKi: −log10 of the molar value.

Smi: O=C(N[C@@H]1C[C@H]1c1c[nH]cn1)OCC1CCCCC1
pKi: 8.38

* * *

Target: Histamine H3 receptor (Rattus norvegicus, UniProt Q9QYN8)
Construct: The cerebral cortical tissues were harvested and frozen on dry ice; from tissue; host or cells: cerebral cortex membranes of male Sprague-Dawley rats
Assay: Histamine H3 receptor binding analysis, [3H]-Nα-methylhistamine competition in rat cerebral cortical membranes, with and without GTPγS
Details: Ki without GTPγS / Ki with GTPγS
Label key: label 1 means Ki Ratio (−/+) under 2; label 0 means Ki Ratio (−/+) of 2 or more.

Smi: O=C(N[C@@H]1C[C@H]1c1c[nH]cn1)OCc1c(Cl)cccc1Cl
Assigned label: label 1
--
Smi: CC(C)(C)CCOC(=O)N[C@@H]1C[C@H]1c1c[nH]cn1
Assigned label: label 1
--
Smi: O=C(N[C@@H]1C[C@H]1c1c[nH]cn1)OCCC1CCCCC1
Assigned label: label 0
--
Smi: N[C@H](/C=C\CCc1c[nH]cn1)CC1CCCCC1
Assigned label: label 0
--
Smi: O=C(N[C@@H]1C[C@H]1c1c[nH]cn1)OCC1CCCCC1
Assigned label: label 0
--
Smi: C(=C/CCC1CCCCC1)/CCc1c[nH]cn1
Assigned label: label 1
--
Smi: CC(C)(C)CCC#C[C@@H]1C[C@H]1c1c[nH]cn1
Assigned label: label 1
